System: MDA-MB-453
Experiment: normalised response (% of control), CellTiter-Glo; higher = more viable cells (100 = DMSO, 0 = benzethonium chloride kill control)
Settings: incubation time: 72 h
Assign Yes whenever normalised response does not fall below 90%; assign No whenever it does.

Completed entries (count: 5):
compound	classAssignment
COc1cc2c(NC3CCN(C(C)C)CC3)nc(C3CCCCC3)nc2cc1OCCCN1CCCC1 [UNC0638] (1 nM)	Yes
Nc1nc(F)nc2c1ncn2[C@@H]1O[C@H](CO)[C@@H](O)[C@@H]1O [Fludarabine] (1 nM)	Yes
O=C(O)C(=O)O.[NH-][C@@H]1CCCC[C@H]1[NH-].[Pt+2] [Oxaliplatin] (1 nM)	No
COc1cc2c(Oc3ccc4[nH]c(C)cc4c3F)ncnc2cc1OCCCN1CCCC1 [Cediranib] (1 nM)	Yes
CCCCC(=O)OCC(=O)[C@]1(O)Cc2c(O)c3c(c(O)c2[C@@H](O[C@H]2C[C@H](NC(=O)C(F)(F)F)[C@H](O)[C@H](C)O2)C1)C(=O)c1c(OC)cccc1C3=O [Valrubicin] (500 nM)	Yes

Field: next compound
Q. Evaluate CC[C@@H]1C(=O)N(C)c2cnc(Nc3ccc(C(=O)NC4CCN(C)CC4)cc3OC)nc2N1C1CCCC1 [BI 2536] (100 nM) : normalised response at minimum 90%?
A. No

###

Tested on: HCC1599
Assay: normalised response (% of control), CellTox Green; higher = less cell death (100 = DMSO, 0 = benzethonium chloride kill control)
Details: incubation time: 72 h
measure: normalised response (%)
Give bare numbers, in %.

compound	normalised response, %
Cc1ccc(-c2cc(C(F)(F)F)nn2-c2ccc(S(N)(=O)=O)cc2)cc1 [Celecoxib] (100 nM)	95.6
CC1=C(/C=C/C(C)=C/C=C/C(C)=C/C(=O)O)C(C)(C)CCC1 [Tretinoin] (10000 nM)	102

# batch size: 4; output normalised response per entry
1. CCCS(=O)(=O)Nc1ccc(F)c(C(=O)c2c[nH]c3ncc(-c4ccc(Cl)cc4)cc23)c1F [Vemurafenib] (100 nM)
2. CC(=O)Nc1cccc(-n2c(=O)n(C3CC3)c(=O)c3c(Nc4ccc(I)cc4F)n(C)c(=O)c(C)c32)c1 [Trametinib] (2.5 nM)
3. CC1=C(/C=C/C(C)=C/C=C/C(C)=C/C(=O)O)C(C)(C)CCC1 [Tretinoin] (1000 nM)
4. CCCCC(=O)OCC(=O)[C@]1(O)Cc2c(O)c3c(c(O)c2[C@@H](O[C@H]2C[C@H](NC(=O)C(F)(F)F)[C@H](O)[C@H](C)O2)C1)C(=O)c1c(OC)cccc1C3=O [Valrubicin] (50 nM)

A.
1. 94
2. 117
3. 101
4. 115

###

Tested on: SK-BR-3
Experiment: normalised response (% of control), CellTiter-Glo; higher = more viable cells (100 = DMSO, 0 = benzethonium chloride kill control)
Conditions: incubation time: 72 h
measure: normalised response (%)
Give bare numbers, in %.

Provide normalised response values for the following items, in order.
1. N#Cc1ccc(C(c2ccc(C#N)cc2)n2cncn2)cc1 [Letrozole] (1000 nM)
2. Nc1nc2[nH]cc(CCc3ccc(C(=O)N[C@@H](CCC(=O)O)C(=O)O)cc3)c2c(=O)[nH]1 [Pemetrexed] (10 nM)
3. CC[C@@H]1C(=O)N(C)c2cnc(Nc3ccc(C(=O)NC4CCN(C)CC4)cc3OC)nc2N1C1CCCC1 [BI 2536] (0.1 nM)
4. Cc1cnc(NC(=O)Nc2cc(Br)c(C)cc2OC[C@@H]2CNCCO2)cn1 [Rabusertib] (0.1 nM)
5. CCc1cncnc1N1CCN(Cc2nc3ccc(C(F)(F)F)cc3[nH]2)CC1 (1 nM)
6. C=CCc1cccc(/C=N/NC(=O)CN2CCN(Cc3ccccc3)CC2)c1O [PAC-1] (1000 nM)

A.
1. 99.5
2. 97.1
3. 112
4. 111
5. 110
6. 109

For each of the compounds below, state normalised response.
1. O=C(O)CCCCC(CCSCc1ccccc1)SCc1ccccc1 (stereo unspecified) [CPI-613] (1000 nM)
2. CCN(CC)CCCC(C)Nc1c2ccc(Cl)cc2nc2ccc(OC)cc12 (stereo unspecified) [Mepacrine] (5000 nM)
3. C[C@H]1C[C@@H]2[C@H]([C@@H](O)C[C@@]3(C)[C@H]2CC[C@]3(O)C(=O)CO)[C@@]2(C)C=CC(=O)C=C12 [Methylprednisolone] (10 nM)
4. C=CC(=O)Nc1cc2c(Nc3ccc(F)c(Cl)c3)ncnc2cc1OCCCN1CCOCC1 [Canertinib] (1000 nM)

A.
1. 100
2. 102
3. 109
4. 27.2

Q. Retrieve normalised response measured for Nc1nc2[nH]cc(CCc3ccc(C(=O)N[C@@H](CCC(=O)O)C(=O)O)cc3)c2c(=O)[nH]1 [Pemetrexed] (1 nM) and print it.
A. 101
